// provenance: paper PMC3804614

molecular target: rTASK1 (K2P3, KCNK3) (Rattus norvegicus); assay: two-electrode voltage clamp, Xenopus oocytes expressing rTASK1, dose-response; assay type: cell-based; conditions: read-out: IC50
Sequence (O54912 whole entry): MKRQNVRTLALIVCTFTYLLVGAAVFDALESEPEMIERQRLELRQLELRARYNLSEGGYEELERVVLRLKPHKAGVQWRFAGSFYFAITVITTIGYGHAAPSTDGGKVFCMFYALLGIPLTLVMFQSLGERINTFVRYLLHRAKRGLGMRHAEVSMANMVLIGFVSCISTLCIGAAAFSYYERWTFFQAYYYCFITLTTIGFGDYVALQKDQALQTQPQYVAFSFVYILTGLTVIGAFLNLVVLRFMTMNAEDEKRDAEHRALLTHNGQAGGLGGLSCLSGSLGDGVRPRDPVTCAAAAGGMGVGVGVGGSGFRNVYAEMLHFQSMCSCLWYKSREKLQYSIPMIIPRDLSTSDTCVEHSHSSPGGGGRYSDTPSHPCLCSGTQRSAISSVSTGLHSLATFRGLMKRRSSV
Assay endpoint: IC50 (µM)
Respond numerically; units are µM and should not be typed.

What value of IC50 has been recorded for this entry: CC(C)=CCC/C(C)=C/CO [geraniol]
580

* * *

biological target: rTASK1 (K2P3, KCNK3) (Rattus norvegicus); experiment: two-electrode voltage clamp, Xenopus oocytes expressing rTASK1, dose-response; format: cell-based
Assay endpoint: IC50 (µM)
Respond numerically; units are µM and should not be typed.

What value of IC50 has been recorded for this entry: CC(=O)CCc1ccc2c(c1)OCO2 [heliotropyl acetone]
890
